# procedure.summary: in vitro
# stated.conditions: human, Caco-2
readout.label: Papp (×10⁻⁶ cm/s)
Entry rule: numbers only, all in ×10⁻⁶ cm/s.

Papp for CC(C)NCC(O)COc1cccc2ccccc12 (stereo not shown) is 20.6

---

# procedure.summary: Permeability through cell-free (blank) microporous membrane filter, non-specific binding assessment
# Assay type: in vitro ADME
# stated.conditions: not told, pH 7.4, cell-free filter, xanthohumol gel formulation at 2 μM, average N = 2
readout.label: recovery at 120 min, 2 μM (%)
Entry rule: numbers only, all in %.

recovery at 120 min, 2 μM for `COc1cc(O)c(CC=C(C)C)c(O)c1C(=O)/C=C/c1ccc(O)cc1` is 97

---

# procedure.summary: Permeability through cell-free (blank) microporous membrane filter, non-specific binding assessment
# Format: in vitro ADME
# stated.conditions: not told, pH 7.4, cell-free filter, xanthohumol gel formulation at 2 μM xanthohumol, pH 7.4, Rep. 2
readout.label: Papp A→B at 120 min, 2 μM (×10⁻⁶ cm/s)
Entry rule: numbers only, all in ×10⁻⁶ cm/s.

Papp A→B at 120 min, 2 μM for COc1cc(O)c(CC=C(C)C)c(O)c1C(=O)/C=C/c1ccc(O)cc1 [Xanthohumol, xanthohumol] is 17.1

---

# procedure.summary: Permeability through cell-free (blank) microporous membrane filter, non-specific binding assessment
# Format: in vitro ADME
# stated.conditions: not told, pH 7.4, cell-free filter, xanthohumol gel formulation at 2 μM xanthohumol, pH 7.4, Rep. 1
readout.label: Papp A→B at 120 min, 2 μM
Please answer using the number first and the unit second.

Papp A→B at 120 min, 2 μM for `COc1cc(O)c(CC=C(C)C)c(O)c1C(=O)/C=C/c1ccc(O)cc1` is 18.6 ×10⁻⁶ cm/s

---

# procedure.summary: Permeability through cell-free (blank) microporous membrane filter, non-specific binding assessment
# Format: in vitro ADME
# stated.conditions: not told, pH 7.4, cell-free filter, xanthohumol gel formulation at 2 μM xanthohumol, pH 7.4, average N = 2
readout.label: Papp A→B at 120 min, 2 μM (×10⁻⁶ cm/s)
Entry rule: numbers only, all in ×10⁻⁶ cm/s.

Papp A→B at 120 min, 2 μM for COc1cc(O)c(CC=C(C)C)c(O)c1C(=O)/C=C/c1ccc(O)cc1 [Xanthohumol, xanthohumol] is 17.9

Hey, just so you know, these numbers are from patent US20110003888A1.
